testedOn: CDK9/cyclin T1 (Homo sapiens, UniProt P50750)
Sequence (P50750 whole entry, species assumed): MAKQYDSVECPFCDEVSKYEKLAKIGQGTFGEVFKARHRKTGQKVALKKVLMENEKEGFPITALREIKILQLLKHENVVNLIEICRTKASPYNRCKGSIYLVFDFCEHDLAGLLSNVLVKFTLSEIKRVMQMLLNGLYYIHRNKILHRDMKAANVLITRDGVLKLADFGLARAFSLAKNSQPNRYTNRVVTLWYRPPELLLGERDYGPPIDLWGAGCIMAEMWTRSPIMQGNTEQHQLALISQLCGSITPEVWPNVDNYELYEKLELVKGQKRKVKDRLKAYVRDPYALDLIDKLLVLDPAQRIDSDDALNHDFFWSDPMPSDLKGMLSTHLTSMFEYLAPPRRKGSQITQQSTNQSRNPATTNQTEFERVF
Sequence (O60563 whole entry partner, species assumed): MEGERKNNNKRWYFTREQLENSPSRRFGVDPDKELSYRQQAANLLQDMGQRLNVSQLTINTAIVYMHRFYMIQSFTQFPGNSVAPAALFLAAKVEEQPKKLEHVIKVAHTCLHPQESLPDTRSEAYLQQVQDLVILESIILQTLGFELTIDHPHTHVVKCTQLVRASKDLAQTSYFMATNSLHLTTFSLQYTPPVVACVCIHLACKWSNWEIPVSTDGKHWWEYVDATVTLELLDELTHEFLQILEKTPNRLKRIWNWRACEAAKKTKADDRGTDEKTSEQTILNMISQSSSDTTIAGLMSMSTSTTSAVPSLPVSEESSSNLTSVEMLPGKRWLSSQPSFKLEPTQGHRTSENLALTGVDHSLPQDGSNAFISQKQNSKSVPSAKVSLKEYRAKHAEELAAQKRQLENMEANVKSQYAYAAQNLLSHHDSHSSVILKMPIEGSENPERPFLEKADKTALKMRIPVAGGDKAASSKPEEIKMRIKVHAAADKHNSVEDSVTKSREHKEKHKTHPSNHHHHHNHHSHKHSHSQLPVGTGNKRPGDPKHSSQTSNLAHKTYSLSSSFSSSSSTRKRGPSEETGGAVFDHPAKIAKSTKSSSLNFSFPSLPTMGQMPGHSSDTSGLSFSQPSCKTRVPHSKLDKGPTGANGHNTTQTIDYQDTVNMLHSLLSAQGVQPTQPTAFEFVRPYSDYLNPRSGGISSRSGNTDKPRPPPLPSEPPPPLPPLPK
testDescription: Kinase assay, radioactive phosphate incorporation, CDK9/cyclin T1
assayConditions: 100 μM ATP, 30° C.; read-out: Kinase inhibition IC50 CDK9/cyclin T1
Description: The compounds from the examples above were investigated for their ability to inhibit the enzymatic activity of various protein kinases. This was achieved by measurement of incorporation of radioactive phosphate from ATP into appropriate polypeptide substrates. […] After washing 3 times with 75 mM aq orthophosphoric acid, plates were dried, scintillant added and incorporated radioactivity measured in a scintillation counter (TopCount, Packard Instruments, Pangbourne, Berks, UK). […]
pIC50: −log10 of the molar value.
reportedProperty: pIC50

1. CS(=O)(=O)NCc1cccc(-c2ccnc(Nc3cccc([N+](=O)[O-])c3)n2)c1; 5.80
2. O=[N+]([O-])c1cccc(Nc2nccc(-c3cccc(Cn4cncn4)c3)n2)c1; 8.70

(a) CCN(C(C)=O)c1cccc(-c2ccnc(Nc3ccc(OC)cc3)n2)c1
(b) CS(=O)(=O)c1cccc(Nc2nccc(-c3cccc(Cn4cncn4)c3)n2)c1
Looking at recorded values for pIC50, does a or b come in lower? Lab log: write the label of the selected item as the result.
a
(a: 6.40, b: 7.22)

###

testedOn: GSK3β (Homo sapiens)
Sequence (P49841 whole entry, species assumed): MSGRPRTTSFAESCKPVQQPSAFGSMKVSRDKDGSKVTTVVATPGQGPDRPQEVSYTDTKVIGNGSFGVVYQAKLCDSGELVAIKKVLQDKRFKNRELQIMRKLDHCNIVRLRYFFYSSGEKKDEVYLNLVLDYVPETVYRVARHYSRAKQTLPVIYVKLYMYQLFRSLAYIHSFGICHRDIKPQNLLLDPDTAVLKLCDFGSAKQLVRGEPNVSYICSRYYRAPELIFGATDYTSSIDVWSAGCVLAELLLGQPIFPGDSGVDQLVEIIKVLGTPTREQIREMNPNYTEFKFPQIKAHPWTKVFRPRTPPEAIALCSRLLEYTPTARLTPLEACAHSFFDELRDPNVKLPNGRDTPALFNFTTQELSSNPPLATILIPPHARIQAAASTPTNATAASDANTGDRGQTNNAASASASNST
testDescription: Kinase assay, radioactive phosphate incorporation, GSK3β
Type: biochemical
assayConditions: 100 μM ATP, 30° C.; read-out: Kinase inhibition IC50 GSK3β
pIC50: −log10 of the molar value.
reportedProperty: pIC50

1) COc1ccc(Nc2nccc(-c3cccc(C#N)c3)n2)cn1; 6.43

(1) COc1ccc(OC)c(-c2ccnc(Nc3ccc(O)cc3)n2)c1
(2) O=[N+]([O-])c1cccc(Nc2nccc(-c3cccc(CNCc4ccccc4)c3)n2)c1
Param metric = pIC50; output whichever of 1 , 2 has the minimum value. Please indicate the selected item by its label.
1
(1: 5.44, 2: 6.74)

###

testedOn: Aurora-A (Homo sapiens, UniProt O14965)
Sequence (O14965 1-403): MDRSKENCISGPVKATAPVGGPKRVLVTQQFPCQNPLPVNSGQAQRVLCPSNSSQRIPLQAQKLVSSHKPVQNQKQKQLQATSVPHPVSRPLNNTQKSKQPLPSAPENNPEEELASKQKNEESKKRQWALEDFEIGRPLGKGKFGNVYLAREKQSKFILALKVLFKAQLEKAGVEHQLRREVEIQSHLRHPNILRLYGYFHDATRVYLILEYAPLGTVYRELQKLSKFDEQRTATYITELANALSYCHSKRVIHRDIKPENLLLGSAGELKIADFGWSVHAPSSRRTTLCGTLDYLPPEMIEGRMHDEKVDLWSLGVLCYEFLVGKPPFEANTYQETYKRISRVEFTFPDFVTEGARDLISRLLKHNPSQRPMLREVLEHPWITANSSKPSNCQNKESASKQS
reportedProperty: IC50 (nM)

(I) CN(c1cccc(-c2ccnc(Nc3cccc(O)c3)n2)c1)S(C)(=O)=O
(II) COc1cccc(-c2ccnc(Nc3ccc(O)cc3)n2)c1
Could you please tell me which of these two has the higher IC50: I or II ? # respond with the chosen item's label
II

(I) Oc1ccc(Nc2nccc(-c3cccc(F)c3)n2)cc1
(II) O=[N+]([O-])c1cccc(Nc2nccc(-c3cccc(CN4CCCC4CNc4ccccc4)c3)n2)c1 (stereo not shown)
// pick larger IC50 from pair: I vs II Reply with the label of the item you choose.
II
(II: 2400 nM, I: 140 nM)

(1) Oc1ccc(Nc2nccc(-c3cccc(C(F)(F)F)c3)n2)cc1
(2) CCN(CC)Cc1cccc(-c2ccnc(Nc3cccc([N+](=O)[O-])c3)n2)c1
(3) COc1cccc(-c2ccnc(Nc3cccc(F)c3)n2)c1
(4) O=[N+]([O-])c1cccc(Nc2nccc(-c3cccc(Cl)c3)n2)c1
(5) Oc1cccc(Nc2nccc(-c3cc(F)ccc3F)n2)c1
Give the ascending ranking of the items by reported IC50. Provide the labels, sequenced as the question asks.
1, 5, 2, 3, 4

(A) CN(C)Cc1cccc(-c2ccnc(Nc3ccc(N4CCOCC4)cc3)n2)c1
(B) CCOc1ccc(-c2ccnc(Nc3cccc(O)c3)n2)cc1
Among A and B , which shows a numerically higher IC50 result? // return label of chosen record
B
(B: 700 nM, A: 400 nM)

(P) COc1ccc(-c2ccnc(Nc3ccc(N4CCOCC4)cc3)n2)cc1
(Q) CS(=O)(=O)c1cccc(Nc2nccc(-c3cccc(Cn4cncn4)c3)n2)c1
(R) COc1cccc(-c2ccnc(Nc3cccc(O)c3)n2)c1
(S) NC(=O)C1CCCN(Cc2cccc(-c3ccnc(Nc4cccc([N+](=O)[O-])c4)n3)c2)C1 (stereo not shown)
I would appreciate it if you could sort these 4 compounds by IC50, starting from the smallest number. Provide your answer as the labels ordered per the instruction.
R, P, S, Q
(R: 20 nM, P: 520 nM, S: 1000 nM, Q: 1500 nM)
